- testMethodNotes: Toxicokinetic study of AAI after single oral administration (plasma, UPLC-QQQ-MS/MS, NCA)
- Format: in vivo, F344 rats
- studyConditions: both sexes, F344, rat, plasma, po, 30 mg/kg, 30 mg/kg single oral, rat plasma, mean ± SD

- molecule: "COc1cccc2c1cc([N+](=O)[O-])c1c(C(=O)O)cc3c(c12)OCO3"
  half-life: "2.79 h"

----------
- testMethodNotes: Toxicokinetic study of AAI after single oral administration (plasma, UPLC-QQQ-MS/MS, NCA)
- Assay type: in vivo, F344 rats
- studyConditions: both sexes, F344, rat, plasma, po, 30 mg/kg, medium-dose (30 mg/kg oral), 1.5 h, individual rats M201,M202,M203,F201,F202,F203

- molecule: "COc1cccc2c1cc([N+](=O)[O-])c1c(C(=O)O)cc3c(c12)OCO3"
  concentration at 1.5 h: "413 ng/mL"

----------
- testMethodNotes: Toxicokinetic study of AAI after single oral administration (plasma, UPLC-QQQ-MS/MS, NCA)
- Type: in vivo, F344 rats
- studyConditions: both sexes, F344, rat, plasma, po, 10 mg/kg, 10 mg/kg single oral, rat plasma, mean ± SD; read-out: tmax
measurementType: tmax (min)

- compound: "COc1cccc2c1cc([N+](=O)[O-])c1c(C(=O)O)cc3c(c12)OCO3 [AAI, Aristolochic acid I]"
  measured: 41.4

----------
- testMethodNotes: Toxicokinetic study of AAI after single oral administration (plasma, UPLC-QQQ-MS/MS, NCA)
- Format: in vivo, F344 rats
- studyConditions: both sexes, F344, rat, plasma, po, 100 mg/kg, 100 mg/kg single oral, rat plasma, mean ± SD

- molecule: "COc1cccc2c1cc([N+](=O)[O-])c1c(C(=O)O)cc3c(c12)OCO3"
  half-life (h): 3.01

----------
- testMethodNotes: Toxicokinetic study of AAI after single oral administration (plasma, UPLC-QQQ-MS/MS, NCA)
- Type: in vivo, F344 rats
- studyConditions: both sexes, F344, rat, plasma, po, 30 mg/kg, medium-dose (30 mg/kg), individual pooled profiles (animal pairs), Table S4

- molecule: "COc1cccc2c1cc([N+](=O)[O-])c1c(C(=O)O)cc3c(c12)OCO3"
  AUC(0-t) [ng·h/mL]: 3450

----------
- testMethodNotes: Toxicokinetic study of AAI after single oral administration (plasma, UPLC-QQQ-MS/MS, NCA)
- Format: in vivo, F344 rats
- studyConditions: both sexes, F344, rat, plasma, po, 10 mg/kg, 10 mg/kg single oral, rat plasma, mean ± SD; read-out: Cmax

- molecule: "COc1cccc2c1cc([N+](=O)[O-])c1c(C(=O)O)cc3c(c12)OCO3"
  Cmax, ng/mL: 457

----------
- testMethodNotes: Toxicokinetic study of AAI after single oral administration (plasma, UPLC-QQQ-MS/MS, NCA)
- Assay type: in vivo, F344 rats
- studyConditions: both sexes, F344, rat, plasma, po, 100 mg/kg, high-dose (100 mg/kg), individual pooled profiles (animal pairs), Table S4; read-out: tmax
measurementType: tmax (h)

- molecule: "COc1cccc2c1cc([N+](=O)[O-])c1c(C(=O)O)cc3c(c12)OCO3"
  measurementType: "tmax"
  measured: 2

----------
- testMethodNotes: Toxicokinetic study of AAI after single oral administration (plasma, UPLC-QQQ-MS/MS, NCA)
- Assay type: in vivo, F344 rats
- studyConditions: both sexes, F344, rat, plasma, po, 10 mg/kg, low-dose (10 mg/kg oral), 24 h, individual rats M104,M105,M106,F104,F105,F106; below LLOQ set to zero
measurementType: concentration at 24 h (ng/mL)

- compound: "COc1cccc2c1cc([N+](=O)[O-])c1c(C(=O)O)cc3c(c12)OCO3 [AAI, Aristolochic acid I]"
  measured: 0

Measured values drawn from paper PMC12656546 for this set.
